Recorded values, source patent US20220402914A1.

Tested on: HeLa cells
assay summary: GI50 against HeLa cells, Cell Titer Glo viability assay
Type: cell-based, human
reported conditions: 24 h
I'd appreciate it if you could supply GI50 values for the items below.
One number for each entry, in µg/mL.

Observe how each entry below is paired with its result.
>>> measured_value("Clc1cc(Cl)c2nc(N3CCc4c([nH]c5ccc(Cl)cc45)C3)sc2c1")
16.1
>>> measured_value("COC(=O)C1CN(c2nc3ccc(Cl)cc3s2)Cc2[nH]c3ccc(Cl)cc3c21 (racemic)")
6.6

Parameters: items (list). Returns: GI50 for each item.
1. Oc1cc(Cl)c2nc(N3CCc4c([nH]c5ccc(Cl)cc45)C3)sc2c1
2. Clc1ccc2[nH]c3c(c2c1)CCN(c1nc2cccc(Cl)c2s1)C3
3. Clc1ccc2[nH]c3c(c2c1)CCN(c1nc2ccc(Br)cc2s1)C3
4. Cl.NCC(=O)Nc1cc(Cl)c2nc(N3CCc4c([nH]c5ccc(Cl)cc45)C3)sc2c1
5. FC(F)(F)Oc1ccc2nc(N3CCc4c([nH]c5ccc(Cl)cc45)C3)sc2c1
6. COCOCC1CN(c2nc3ccc(Cl)cc3s2)Cc2[nH]c3ccc(Cl)cc3c21 (racemic)

Out:
[5.5, 6.7, 5.1, 14.8, 7.3, 7.0]

---

Tested on: HeLa cells
assay summary: GI50 against HeLa cells, Cell Titer Glo viability assay
Format: cell-based, human
reported conditions: 24 h
property measured: GI50 (µg/mL)
One number for each entry, in µg/mL.

Observe how each entry below is paired with its result.
>>> measured_value("CNc1cc(C(F)(F)F)c2nc(N3CCc4c([nH]c5ccc(Cl)cc45)C3)sc2c1 [Compound 4ai]")
15.4
>>> measured_value("O=C(O)C1CN(c2nc3ccc(Cl)cc3s2)Cc2[nH]c3ccc(Cl)cc3c21 (racemic) [Compound 8]")
65
>>> measured_value("N=CNCC1CN(c2nc3ccc(Cl)cc3s2)Cc2[nH]c3ccc(Cl)cc3c21 (racemic) [Compound 12f]")
3.8
>>> measured_value("Clc1ccc2[nH]c3c(c2c1)CCN(c1nc2c(Cl)c(Cl)c(Cl)cc2s1)C3 [Compound 4y]")
11.7
>>> measured_value("CN(C)CC1CN(c2nc3ccc(Cl)cc3s2)Cc2[nH]c3ccc(Cl)cc3c21 (racemic) [Compound 12c]")
5.2

Parameters: items (list). Returns: GI50 for each item.
1. Clc1ccc2[nH]c3c(c2c1)CCN(c1nc2c(Cl)cccc2s1)C3 [Compound 4w]
2. NCCNCC1CN(c2nc3ccc(Cl)cc3s2)Cc2[nH]c3ccc(Cl)cc3c21 (racemic) [Compound 12e]
3. OCC1CN(c2nc3ccc(Cl)cc3s2)Cc2[nH]c3ccc(Cl)cc3c21 (racemic) [Compound 10]
4. Clc1ccc2[nH]c3c(c2c1)CCN(c1nc2c(Cl)cc(Br)cc2s1)C3 [Compound 4ac]

Out:
[27.7, 2.4, 10.8, 22]

---

System: HeLa cells
assay summary: GI50 against HeLa cells, Cell Titer Glo viability assay
Type: cell-based, human
reported conditions: 24 h
I'd appreciate it if you could supply GI50 values for the items below.
Answers are plain numbers, in µg/mL.

>>> measured_value("Cl.NCCSCC1CN(c2nc3ccc(Cl)cc3s2)Cc2[nH]c3ccc(Cl)cc3c21 (racemic) [Compound 12a]")
3.8

Parameters: items (list). Returns: GI50 for each item.
1. FC(F)(F)c1ccc2nc(N3CCc4c([nH]c5ccc(Cl)cc45)C3)sc2c1
2. FC(F)(F)c1cc(Br)cc2sc(N3CCc4c([nH]c5ccc(Cl)cc45)C3)nc12

Out:
1. 4.6
2. 5.9

Parameters: items (list). Returns: GI50 for each item.
1. Cl.Nc1cc(C(F)(F)F)c2nc(N3CCc4c([nH]c5ccc(Cl)cc45)C3)sc2c1
2. Cl.NCCNc1cc(C(F)(F)F)c2nc(N3CCc4c([nH]c5ccc(Cl)cc45)C3)sc2c1
3. NCC1CN(c2nc3ccc(Cl)cc3s2)Cc2[nH]c3ccc(Cl)cc3c21 (racemic) [Compound 12b]
4. FC(F)(F)c1cccc2sc(N3CCc4c([nH]c5ccc(Cl)cc45)C3)nc12
5. Clc1ccc2nc(N3CCc4c([nH]c5ccc(Cl)cc45)C3)sc2c1

Out:
1: 32; 2: 7.4; 3: 1.5; 4: 8; 5: 13.2
